Tested on: UACC-62
Assay: NCI tumour cell line growth inhibition, 48 h
Active and inactive are the calls of the source. Cut-off read from the data, not from the text of the source: active = GI50 up to about 1.1 µM and inactive = higher.
Your answer must be one of the following: active, inactive

O=c1c2c3c(sc2nc2n1sc1nc4sc5c(c4c(=O)n12)CCCC5)CCCC3 = inactive
OC1CC(O)O[C@H](c2ccccc2)C1 (stereo partly specified) = inactive
NC(CCC(=O)NC(CSC(=O)N(O)c1ccccc1)C(=O)NCC(=O)O)C(=O)O (stereo unspecified) = inactive
CC(=O)c1ccc2c(c1)N(CCCN1CCN(CCO)CC1)c1ccccc1C2 = inactive
COC(=O)CC(C(C(=O)OC)C(=O)OC)N1C(=O)OC(c2ccccc2)C1c1ccccc1 (stereo unspecified) = inactive
Cc1nc(-c2ccc(Cl)cc2)cn2c1nc1ccccc12 = inactive
C/C=C(\C)C(=O)N1c2ccccc2CC1c1c(C)[nH]c2ccccc12 (stereo unspecified) = inactive
Nc1ncnc2c1ncn2C1OC(CSC(F)F)C(O)C1O (stereo unspecified) = inactive
Cc1ccc2c(O)cc(-c3cccc(Cl)c3)nc2n1 = active
COc1ccc(/C(Cl)=C/c2cc(OC)ccc2OC)cc1 = inactive

Query compound follows.
Please state the recorded outcome for this compound: "Cc1cc2c(=O)c3ccc(Cl)cc3[nH]c2c(C(N)=O)c1C"
inactive
